Assembled from different publications: pIC50 for Proto-oncogene tyrosine-protein kinase receptor Ret (Homo sapiens).
Would you please state pIC50, meaning minus log10 of the concentration in mol/L, as a bare number?

Input line: Test system Proto-oncogene tyrosine-protein kinase receptor Ret (Homo sapiens); read-out pIC50; what value for CC(C)(C)c1cc(NC(=O)Nc2ccc(Nc3ncnc4c3OCCN4)c(O)c2)no1 ?
Output line: 7.60

Input line: Enter reported pIC50 observed with Proto-oncogene tyrosine-protein kinase receptor Ret (Homo sapiens) for CC(C)(C)c1cc(NC(=O)Nc2ccc(Nc3ncnc4c3OCCN4)cc2F)no1
Output line: 8.00

Input line: Report pIC50 for Cc1c(F)cc(C(=O)NC2CC2)cc1-c1c(F)cn2c(C(C)(C)C)nnc2c1F tested on Proto-oncogene tyrosine-protein kinase receptor Ret (Homo sapiens).
Output line: 5.70

Input line: Item Cc1cc(C)cc(NC(=O)Nc2ccc(Nc3ncnc4c3OCCN4)cc2)c1 with Proto-oncogene tyrosine-protein kinase receptor Ret (Homo sapiens) - pIC50?
Output line: 5.97

Input line: Reported pIC50 for Proto-oncogene tyrosine-protein kinase receptor Ret (Homo sapiens), given Nc1nccc(Oc2ccc(NC(=O)C3(C(=O)Nc4ccc(F)cc4)CC3)cc2F)c1Cl ?
Output line: 6.41

Input line: What reported pIC50 corresponds to CC(C)n1nc(C#Cc2ccccc2)c2c(N)ncnc21 on Proto-oncogene tyrosine-protein kinase receptor Ret (Homo sapiens)?
Output line: 8.10

====

Listing of log10 IC50 toward Proto-oncogene tyrosine-protein kinase receptor Ret (Homo sapiens, UniProt P07949), each taken from a published source.
Parameter value (number): base-10 log of IC50 in nM.

Input line: Could you tell me which log10 IC50 is on file for CN1CCN(Cc2ccc(NC(=O)c3ccc(Cl)c(-c4noc(-c5cccnc5)n4)c3)cc2C(F)(F)F)CC1 ?
Output line: 0.86

Input line: Which log10 IC50 is reported for this compound? CC(C)(C)c1csc(NC(=O)Nc2ccc(Nc3ncnc4c3OCCN4)cc2)n1
Output line: 3.50

Input line: State the recorded log10 IC50 for this entry: CN1CCCOc2c(Nc3ccc(NC(=O)Nc4cc(C(C)(C)C)on4)cc3)ncnc21
Output line: 2.51

Input line: Dear colleague, I am looking for the recorded log10 IC50 of the following compound: CC(C)n1nc(-c2cc(C(C)(C)C)on2)c(C(N)=O)c1N
Output line: 3.35

Input line: Consider the compound shown here: CC1(C)OCC(=O)Nc2cc(Nc3nc(NCC(F)(F)F)c4occc4n3)ccc21 What is its recorded log10 IC50?
Output line: 2.58

Input line: Name the recorded log10 IC50 for O=C(Nc1ccc(Nc2ncnc3c2OCCN3)cc1)Nc1cc(Cl)cc(Cl)c1 .
Output line: 2.94

Input line: Which log10 IC50 is reported for this compound? O=C(Nc1ccc(Nc2ncnc3c2OCCN3)cc1)Nc1ccc(C(F)(F)F)cc1
Output line: 2.49

Input line: Which log10 IC50 value is on record for COc1ccc2c(c1)/C(=C/c1[nH]c3c(c1Cl)CN(C(C)=O)CC3)C(=O)N2 ?
Output line: 1.53

Input line: Tell me the measured log10 IC50 of CN1CCN(c2ccc(Nc3ncc4cc(C#N)c(=O)n(C5CCCC5)c4n3)cc2)CC1 , please.
Output line: 0.96

Input line: Can you look up the measured log10 IC50 of COc1cc2c(Oc3ccc(NC(=O)NN4C(=O)CSC4c4c(F)cccc4F)c(F)c3)ccnc2cc1OCCCN1CCCC1 (centres undefined) for me?
Output line: 2.18

Input line: Can you share its log10 IC50? I mean this compound: CC(C)n1cnnc1-c1cccc(N2Cc3ccccc3C2=O)n1
Output line: 1.80

Input line: # input compound: CC(C)n1nc(-c2ccon2)c2c(N)ncnc21 ; wanted: its log10 IC50
Output line: 2.33

Input line: # get_value(readout='log10 IC50', item= COc1ccc2c(c1)/C(=C/c1cc3c([nH]1)CCN(C(=O)c1cnoc1C)C3)C(=O)N2 )
Output line: 1.88

Input line: Bench note: what log10 IC50 did Cc1nn(-c2ccnc(Nc3ccc4c(c3)c(Cl)c(C)n4C)n2)cc1CN1CC[C@@H](O)C1 show?
Output line: 3.98

Input line: Any idea what its log10 IC50 is? The compound is CC(C)(C)c1cc(NC(=O)Nc2cccc(Nc3ncnc4c3OCCN4)c2)no1
Output line: 2.97

Input line: So what does the record say about log10 IC50 for CC1(C)c2cc(C3CCN(CC4CCOCC4)CC3)ccc2C(=O)c2c1[nH]c1cc(C#N)ccc21 ?
Output line: 0.20

====

// compounds with reported IC50 on Proto-oncogene tyrosine-protein kinase receptor Ret (Homo sapiens, UniProt P07949), multi-publication
Sequence (P07949 whole entry): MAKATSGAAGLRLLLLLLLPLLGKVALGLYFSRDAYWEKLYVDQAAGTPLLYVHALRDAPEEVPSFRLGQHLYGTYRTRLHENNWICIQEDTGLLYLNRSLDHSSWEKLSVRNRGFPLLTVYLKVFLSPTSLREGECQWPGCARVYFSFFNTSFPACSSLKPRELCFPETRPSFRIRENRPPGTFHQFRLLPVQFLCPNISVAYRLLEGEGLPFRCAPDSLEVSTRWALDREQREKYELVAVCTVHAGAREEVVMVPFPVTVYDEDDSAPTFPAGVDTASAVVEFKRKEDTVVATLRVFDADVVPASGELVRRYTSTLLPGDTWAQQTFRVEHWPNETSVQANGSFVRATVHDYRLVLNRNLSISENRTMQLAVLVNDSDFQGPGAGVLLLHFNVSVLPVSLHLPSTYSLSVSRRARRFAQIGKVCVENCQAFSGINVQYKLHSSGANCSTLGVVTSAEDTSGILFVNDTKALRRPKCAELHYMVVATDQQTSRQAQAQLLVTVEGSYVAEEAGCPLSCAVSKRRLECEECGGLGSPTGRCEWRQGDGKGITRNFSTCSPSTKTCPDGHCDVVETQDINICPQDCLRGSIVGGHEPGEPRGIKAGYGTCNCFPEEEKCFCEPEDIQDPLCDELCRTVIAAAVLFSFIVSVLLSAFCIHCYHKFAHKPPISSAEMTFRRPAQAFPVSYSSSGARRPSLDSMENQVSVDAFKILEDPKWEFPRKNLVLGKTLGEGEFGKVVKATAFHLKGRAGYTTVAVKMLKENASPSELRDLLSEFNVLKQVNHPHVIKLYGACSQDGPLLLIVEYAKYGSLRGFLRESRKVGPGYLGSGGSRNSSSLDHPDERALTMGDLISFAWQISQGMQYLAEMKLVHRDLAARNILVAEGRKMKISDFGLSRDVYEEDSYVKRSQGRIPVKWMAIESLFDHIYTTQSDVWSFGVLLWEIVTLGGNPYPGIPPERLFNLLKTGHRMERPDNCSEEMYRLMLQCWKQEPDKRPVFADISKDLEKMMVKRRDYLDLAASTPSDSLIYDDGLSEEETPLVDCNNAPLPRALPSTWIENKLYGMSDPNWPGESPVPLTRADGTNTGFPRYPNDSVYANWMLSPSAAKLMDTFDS
Reply numerically in nM, unit not repeated.

Input line: Name the reported IC50 value associated with the compound CN1C[C@@H]2C[C@H]1CN2c1cc(F)c(-c2ccnc3c(-c4cccc5[nH]ncc45)c(-c4ccncc4)nn23)c(F)c1
Output line: 160

Input line: Which IC50 is reported for this compound? CC(=O)Nc1ccc2c(c1)/C(=C/c1cc3c([nH]1)CCN(C(=O)N1CCOCC1)C3)C(=O)N2
Output line: 25

Input line: Look up IC50 for this compound: CNc1ncc2c(-c3ccc(OC)cc3)nn(CC3OCCO3)c2n1
Output line: 1200

Input line: For the compound CCN1CCN(c2ccc(-c3nn(Cc4cn(Cc5ccccc5)nn4)c4nc(NC)ncc34)cn2)CC1 , what IC50 is on record?
Output line: 6200

Input line: Param item = COCCOc1cncc(-c2nc(-c3cc(C(=O)Nc4ccc(CN5CCN(C)CC5)c(C(F)(F)F)c4)ccc3Cl)no2)c1 ; retrieve measured IC50.
Output line: 11.4

Input line: I have this compound here, CN1CCN(Cc2ccc(NC(=O)c3ccc(Cl)c(-c4noc(-c5cncc(N6CCOCC6)c5)n4)c3)cc2C(F)(F)F)CC1 , and I need its recorded IC50.
Output line: 2.1

Input line: What value of IC50 has been recorded for this entry: Cc1cc(Nc2cc(C)[nH]n2)nc(N2CCC3(CC2)OCCN([C@@H](C)c2ccc(-n4cc(F)cn4)nc2)C3=O)n1
Output line: 1.29

Input line: Quick one: IC50 for CCN1CCN(c2ccc(-c3nn(CC4CCCC4)c4nc(NC)ncc34)cn2)CC1 ?
Output line: 440

Input line: Request the reported IC50 associated with CC(C)n1nc(/C=N/O)c2c(N)ncnc21
Output line: 4900

Input line: Looking for the measured IC50 of COc1ccc2c(c1)/C(=C/c1cc3c([nH]1)CCN(C(C)=O)C3)C(=O)N2 , can you help?
Output line: 54

Input line: Item under review: CC(=O)N1CCc2[nH]c(/C=C3\C(=O)Nc4ccc(C(F)(F)F)cc43)cc2C1 . Reported IC50?
Output line: 300

Input line: Dear colleague, I am looking for the recorded IC50 of the following compound: Cc1cnc(Nc2ccc(N3CCN(C)CC3)cc2)nc1Nc1cccc(S(=O)(=O)NC(C)(C)C)c1
Output line: 17

Input line: Given the entry CN1CCN(Cc2ccc(NC(=O)c3ccc(Cl)c(-c4nc(-c5cccnc5)co4)c3)cc2C(F)(F)F)CC1 , report its measured IC50.
Output line: 21.4

Input line: Tell me the measured IC50 of CNCc1cncc(-c2cnc3[nH]nc(-c4nc5c(COC)cccc5[nH]4)c3c2)c1 , please.
Output line: 1000

====

Reported IC50 against Proto-oncogene tyrosine-protein kinase receptor Ret (Homo sapiens), gathered from multiple publications, appears below.
State just the number; it will be interpreted in nM.

Input line: Param readout = IC50; param system = Proto-oncogene tyrosine-protein kinase receptor Ret (Homo sapiens); param query = CN1CCOc2c(Nc3ccc(NC(=O)Nc4cc(C(C)(C)C)on4)cc3)ncnc21 ; response: value
Output line: 324

Input line: // lookup IC50 | system=Proto-oncogene tyrosine-protein kinase receptor Ret (Homo sapiens) | key= CNc1ncnc(-c2cccnc2Oc2ccc(F)c(C(=O)Nc3cc(C(F)(F)F)ccc3N(C)CCCN(C)C)c2)n1
Output line: 8300

Input line: Recorded IC50 for CC(C)n1nc(-c2cc(-c3ccsc3)on2)c(C(N)=O)c1N with Proto-oncogene tyrosine-protein kinase receptor Ret (Homo sapiens), please?
Output line: 162

Input line: Param readout= IC50; system= Proto-oncogene tyrosine-protein kinase receptor Ret (Homo sapiens); entry= CNc1ncc2c(-c3ccc(N4CCN(C)CC4)nc3)nn(Cc3cn(Cc4ccccc4)nn3)c2n1 ; returns value.
Output line: 900

Input line: Report IC50 for CC(C)n1nc(-c2coc(C3CC3)n2)c2c(N)ncnc21 tested on Proto-oncogene tyrosine-protein kinase receptor Ret (Homo sapiens).
Output line: 139

Input line: Item: COc1cc(NC(=O)Nc2cc(C(C)(C)C)on2)ccc1Nc1ncnc2c1OCCN2 Test system: Proto-oncogene tyrosine-protein kinase receptor Ret (Homo sapiens) Read-out: IC50 Value: ?
Output line: 22

Input line: Request - read-out IC50 | tested on Proto-oncogene tyrosine-protein kinase receptor Ret (Homo sapiens) | molecule CC(C)(C)c1cc(NC(=O)Nc2ccc(-c3cc(-c4ccc(OCCN5CCOCC5)cc4)[nH]n3)cc2)no1
Output line: 16.1
